# Target Or System: PI3K-α (Homo sapiens)
# Sequence (P42336 whole entry, species assumed): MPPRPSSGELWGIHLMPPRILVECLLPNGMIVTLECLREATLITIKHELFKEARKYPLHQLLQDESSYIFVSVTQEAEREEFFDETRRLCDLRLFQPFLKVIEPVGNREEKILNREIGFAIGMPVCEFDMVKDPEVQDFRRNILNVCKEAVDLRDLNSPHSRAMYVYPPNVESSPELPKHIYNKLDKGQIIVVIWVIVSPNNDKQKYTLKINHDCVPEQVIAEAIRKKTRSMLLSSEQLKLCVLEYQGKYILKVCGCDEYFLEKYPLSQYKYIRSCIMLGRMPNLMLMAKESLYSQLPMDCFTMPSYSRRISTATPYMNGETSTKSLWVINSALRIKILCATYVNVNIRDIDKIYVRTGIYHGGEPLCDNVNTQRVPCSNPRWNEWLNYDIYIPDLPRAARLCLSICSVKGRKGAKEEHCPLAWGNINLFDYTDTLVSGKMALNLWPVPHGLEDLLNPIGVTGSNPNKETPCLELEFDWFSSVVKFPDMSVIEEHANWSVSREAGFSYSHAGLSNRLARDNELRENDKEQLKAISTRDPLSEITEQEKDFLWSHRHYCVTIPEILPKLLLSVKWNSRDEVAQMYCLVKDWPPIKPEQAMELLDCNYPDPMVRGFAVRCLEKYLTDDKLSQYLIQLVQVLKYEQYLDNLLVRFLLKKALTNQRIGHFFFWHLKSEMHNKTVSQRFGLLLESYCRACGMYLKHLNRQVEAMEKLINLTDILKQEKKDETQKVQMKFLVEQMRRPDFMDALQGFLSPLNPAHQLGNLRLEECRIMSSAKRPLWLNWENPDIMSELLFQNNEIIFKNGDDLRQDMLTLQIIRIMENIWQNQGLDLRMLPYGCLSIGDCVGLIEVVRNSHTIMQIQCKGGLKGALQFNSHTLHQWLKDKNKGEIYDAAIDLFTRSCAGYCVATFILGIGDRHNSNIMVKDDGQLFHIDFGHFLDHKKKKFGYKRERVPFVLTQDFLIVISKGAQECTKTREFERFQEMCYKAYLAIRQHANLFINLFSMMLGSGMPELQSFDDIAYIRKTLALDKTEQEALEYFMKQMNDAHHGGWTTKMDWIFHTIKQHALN
# Sequence (P27986 whole entry partner, species assumed): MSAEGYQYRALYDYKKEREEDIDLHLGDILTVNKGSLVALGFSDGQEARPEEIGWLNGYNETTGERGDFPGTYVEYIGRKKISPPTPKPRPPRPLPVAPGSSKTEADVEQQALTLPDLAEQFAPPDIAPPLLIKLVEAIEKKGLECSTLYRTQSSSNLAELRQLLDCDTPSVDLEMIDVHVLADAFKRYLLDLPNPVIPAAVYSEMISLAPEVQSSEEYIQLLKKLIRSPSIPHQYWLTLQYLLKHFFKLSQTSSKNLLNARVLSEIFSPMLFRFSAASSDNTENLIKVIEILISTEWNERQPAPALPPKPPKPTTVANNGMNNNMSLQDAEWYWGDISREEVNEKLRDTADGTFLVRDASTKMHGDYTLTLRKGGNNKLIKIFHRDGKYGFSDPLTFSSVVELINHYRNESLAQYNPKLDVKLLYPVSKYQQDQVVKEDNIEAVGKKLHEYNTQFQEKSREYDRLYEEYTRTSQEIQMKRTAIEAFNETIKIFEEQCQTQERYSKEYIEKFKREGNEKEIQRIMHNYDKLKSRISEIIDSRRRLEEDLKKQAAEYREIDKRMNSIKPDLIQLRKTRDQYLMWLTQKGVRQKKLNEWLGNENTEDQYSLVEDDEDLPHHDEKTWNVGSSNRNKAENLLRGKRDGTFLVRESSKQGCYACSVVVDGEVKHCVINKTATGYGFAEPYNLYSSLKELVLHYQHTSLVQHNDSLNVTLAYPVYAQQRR
# Method Summary: PI3K-alpha fluorescence polarization assay
# Conditions Used: read-out: IC50 PI3Kα
pIC50: −log10 of the molar value.
Respond with Condition met for pIC50 values of 7 and above, Condition not met for values below.

>>> label_class("CCS(=O)(=O)N1CCN(c2nc(-c3ccc(NC(=O)Nc4ccncc4)cc3)nc(N3CCOCC3)n2)CC1 [Example 650]")
"Condition met"
>>> label_class("CN1CCN(c2ccc(NC(=O)Nc3ccc(-c4nc(N5CC6CCC(C5)O6)nc(N5CC6CCC(C5)O6)n4)cc3)cc2)CC1 [Example 28]")
"Condition met"
>>> label_class("O=C(Nc1ccc(-c2nc(-c3ccccc3)nc(N3CCOCC3)n2)cc1)Nc1cccc(C(=O)O)c1 [Example 590]")
"Condition not met"
>>> label_class("CC(C)Cc1nc(-c2ccc(NC(=O)Nc3ccc(N4CCN(C)CC4)cc3)cc2)nc(N2CCOCC2)n1 [Example 297]")
"Condition met"
>>> label_class("C[C@H]1COCCN1c1nc(-c2ccc(NC(=O)Nc3ccc(C(=O)N4CCNCC4)cc3)cc2)nc(N2C3CCC2COC3)n1 [Example 838]")
"Condition met"
>>> label_class("CC(C)Nc1nc(-c2ccc(NC(=O)Nc3ccncc3)cc2)nc(N2C3CCC2COC3)n1 [Example 377]")
"Condition not met"
>>> label_class("C[C@@H]1COCCN1c1nc(-c2ccc(NC(=O)Nc3ccc(N4CCN(C)CC4)nc3)cc2)nc(N2C3CCC2COC3)n1 [Example 446]")
"Condition not met"
